The values you see were collected from BigSolDB 2.1.

Conditions: in 2-pentanone, 303.15 K
Reported metric: solubility (mole fraction)

Give reported solubility (mole fraction) value for `C[C@H](CCC(=O)O)[C@H]1CC[C@H]2[C@@H]3CC[C@@H]4C[C@H](O)CC[C@]4(C)[C@H]3C[C@H](O)[C@]12C`
0.00198

Find the measured solubility (mole fraction) of `C[C@H](CCC(=O)O)[C@H]1CC[C@H]2[C@@H]3[C@H](O)C[C@@H]4C[C@H](O)CC[C@]4(C)[C@H]3C[C@H](O)[C@]12C` and report it.
0.00206

---

Conditions: in ethyl acetate, 293.15 K
Reported metric: solubility (mole fraction)
Output: the number by itself.

Read the entry `C[C@H](CCC(=O)O)[C@H]1CC[C@H]2[C@@H]3[C@H](O)C[C@@H]4C[C@H](O)CC[C@]4(C)[C@H]3C[C@H](O)[C@]12C` and write its reported solubility (mole fraction).
0.000242

Report solubility (mole fraction), nothing else, for this compound: `C[C@H](CCC(=O)O)[C@H]1CC[C@H]2[C@@H]3CC[C@@H]4C[C@H](O)CC[C@]4(C)[C@H]3C[C@H](O)[C@]12C`
0.000304

---

Conditions: in n-hexanol, 303.15 K
Reported metric: solubility (mole fraction)

Output solubility (mole fraction) of `C[C@H](CCC(=O)O)[C@H]1CC[C@H]2[C@@H]3[C@H](O)C[C@@H]4C[C@H](O)CC[C@]4(C)[C@H]3C[C@H](O)[C@]12C`
0.0182

Output solubility (mole fraction) of `C[C@H](CCC(=O)O)[C@H]1CC[C@H]2[C@@H]3CC[C@@H]4C[C@H](O)CC[C@]4(C)[C@H]3C[C@H](O)[C@]12C`
0.0102

---

Give solubility (mole fraction) for every item shown.
Conditions: in gamma-valerolactone, 313.15 K
The answer should be written as a number, with no unit following it.

Answer with reported solubility (mole fraction) of `C[C@H](CCC(=O)O)[C@H]1CC[C@H]2[C@@H]3CC[C@@H]4C[C@H](O)CC[C@]4(C)[C@H]3C[C@H](O)[C@]12C`
0.00304

Please report solubility (mole fraction) for the following compound: `C[C@H](CCC(=O)O)[C@H]1CC[C@H]2[C@@H]3[C@H](O)C[C@@H]4C[C@H](O)CC[C@]4(C)[C@H]3C[C@H](O)[C@]12C`
0.00412

---

For each of the compounds below, state its solubility (mole fraction).
Details: in cyclohexanone, 303.15 K
Note: the reply should be a number with no unit written.

Kindly indicate its recorded solubility (mole fraction). Item: `C[C@H](CCC(=O)O)[C@H]1CC[C@H]2[C@@H]3[C@H](O)C[C@@H]4C[C@H](O)CC[C@]4(C)[C@H]3C[C@H](O)[C@]12C`
0.00952

Give the reported solubility (mole fraction) for this compound. `C[C@H](CCC(=O)O)[C@H]1CC[C@H]2[C@@H]3CC[C@@H]4C[C@H](O)CC[C@]4(C)[C@H]3C[C@H](O)[C@]12C`
0.00302

---

Settings: in n-butyl acetate, 313.15 K
Reported metric: solubility (mole fraction)
Respond using a number only.

Answer with the recorded solubility (mole fraction) of `C[C@H](CCC(=O)O)[C@H]1CC[C@H]2[C@@H]3[C@H](O)C[C@@H]4C[C@H](O)CC[C@]4(C)[C@H]3C[C@H](O)[C@]12C` only.
0.000492

Note down solubility (mole fraction) recorded for `C[C@H](CCC(=O)O)[C@H]1CC[C@H]2[C@@H]3CC[C@@H]4C[C@H](O)CC[C@]4(C)[C@H]3C[C@H](O)[C@]12C`
0.000609
